Values were extracted from paper PMC9090415.

- TARGET_SYSTEM: UniProtKB Q8ILY1
- EXPERIMENTAL_DETAILS: Fluorescence-based high-throughput DNA polymerase assay (molecular beacon), primary screen and dose-response
- Assay type: biochemical
- STUDY_CONDITIONS: DRC-2; 180'; conc 2.5
- Excerpt: The HT assay employs a molecular beacon, a stem-loop DNA template with a Cy3 dye and the Black Hole Quencher on the 3′ and 5′ ends of the DNA, respectively. Pf-apPOL concentration is based on a calculated absorptivity of ε280 = 56750 M^−1 cm^−1. […] To identify apPOL inhibitors we utilised our previously developed high-throughput DNA polymerase assay. […] The assay accurately recapitulates the kinetic behaviour of apPOL, as measured through more conventional low-throughput gel-based assays. […]
ASSAY_ENDPOINT: % inhibition apPOL 180' (%)

compound="Cc1cc(C)c2c(c1)C1C=CCC1C(c1ccc(C(=O)O)cc1)N2 (stereo not shown)" scale_unit=% numeric_value=19
compound="CCOc1nc2cccc(C(=O)OC(C)OC(=O)OC3CCCCC3)c2n1Cc1ccc(-c2ccccc2-c2nnn[nH]2)cc1 (stereo not shown)" scale_unit=% numeric_value=4.45
compound="Cc1ccccc1NC(=O)Cn1ccc2c(=O)[nH]ccc21 [Molecule 50, O=C(Cn1ccc2c1cc[nH]c2=O)Nc1ccc(cc1)C]" scale_unit=% numeric_value=-4
compound=Cc1ccc(NC(=O)Cn2ccc3c(=O)[nH]ccc32)c(C)c1 scale_unit=% numeric_value=-10
compound=Cc1cccc(C2=N/C(=C\c3ccc([N+](=O)[O-])o3)C(=O)O2)c1 scale_unit=% numeric_value=1.68
compound=C=CC1=C(C)c2cc3[nH]c(cc4nc(cc5[nH]c(cc1n2)c(C)c5CCC(=O)O)C(CCC(=O)O)=C4C)c(C)c3C=C scale_unit=% numeric_value=25
compound="Cc1cccc(NC(=O)Cn2ccc3c(=O)[nH]ccc32)c1C [Molecule 11, O=C(Cn1ccc2c1cc[nH]c2=O)Nc1cccc(c1C)C]" scale_unit=% numeric_value=-8

====

- TARGET_SYSTEM: P. falciparum apicoplast DNA polymerase (Pf-apPOL) (Plasmodium falciparum, UniProt Q8ILY1)
- Sequence (Q8ILY1 entry or part of it): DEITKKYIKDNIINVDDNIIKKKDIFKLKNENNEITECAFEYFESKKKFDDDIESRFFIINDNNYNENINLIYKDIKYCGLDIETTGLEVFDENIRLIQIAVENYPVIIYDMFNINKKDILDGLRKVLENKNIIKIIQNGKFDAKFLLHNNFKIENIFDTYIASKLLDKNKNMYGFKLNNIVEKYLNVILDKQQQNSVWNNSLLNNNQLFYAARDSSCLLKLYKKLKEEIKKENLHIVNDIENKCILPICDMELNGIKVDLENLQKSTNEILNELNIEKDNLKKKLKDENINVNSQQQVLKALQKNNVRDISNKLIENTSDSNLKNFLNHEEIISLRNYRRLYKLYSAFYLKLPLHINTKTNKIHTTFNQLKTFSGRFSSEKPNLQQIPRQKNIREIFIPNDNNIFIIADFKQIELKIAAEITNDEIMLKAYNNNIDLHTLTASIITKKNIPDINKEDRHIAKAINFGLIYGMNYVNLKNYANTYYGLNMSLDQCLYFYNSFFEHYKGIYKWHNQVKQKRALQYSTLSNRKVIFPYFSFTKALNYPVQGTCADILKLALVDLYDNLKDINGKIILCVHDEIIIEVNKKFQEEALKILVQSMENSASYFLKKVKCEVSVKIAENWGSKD
- EXPERIMENTAL_DETAILS: Fluorescence-based high-throughput DNA polymerase assay (molecular beacon), primary screen and dose-response;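 on % inhibition Apol 40': compound concentration given in µM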
- Type: biochemical
- STUDY_CONDITIONS: conc 80 (unit not given); 40'; DRC-2
ASSAY_ENDPOINT: % inhibition Apol 40' (%)

molecule=O=C(O)CC1=NN(c2cccc([N+](=O)[O-])c2)C(=O)C1 assay_endpoint="% inhibition Apol 40'" numeric_value=71
molecule="CSCCC(C)(O)CNC(=O)C1CC1 (centres unmarked)" assay_endpoint="% inhibition Apol 40'" numeric_value=41
molecule=O=[N+]([O-])c1cc2c(cc1CN1CCCCCC1)OCO2 assay_endpoint="% inhibition Apol 40'" numeric_value=49
molecule=O=[N+]([O-])c1cc2c(cc1CN1CCN(c3cccc(Cl)c3)CC1)OCO2 assay_endpoint="% inhibition Apol 40'" numeric_value=61
molecule=COc1ccccc1CCC(=O)N1CCc2c(nc3cc(-c4ccccc4)[nH]n3c2=O)C1 assay_endpoint="% inhibition Apol 40'" numeric_value=44

====

- TARGET_SYSTEM: bacteriophage T4 DNA polymerase (Enterobacteria phage T4)
- Construct: made in house
- Sequence (P04415 whole entry): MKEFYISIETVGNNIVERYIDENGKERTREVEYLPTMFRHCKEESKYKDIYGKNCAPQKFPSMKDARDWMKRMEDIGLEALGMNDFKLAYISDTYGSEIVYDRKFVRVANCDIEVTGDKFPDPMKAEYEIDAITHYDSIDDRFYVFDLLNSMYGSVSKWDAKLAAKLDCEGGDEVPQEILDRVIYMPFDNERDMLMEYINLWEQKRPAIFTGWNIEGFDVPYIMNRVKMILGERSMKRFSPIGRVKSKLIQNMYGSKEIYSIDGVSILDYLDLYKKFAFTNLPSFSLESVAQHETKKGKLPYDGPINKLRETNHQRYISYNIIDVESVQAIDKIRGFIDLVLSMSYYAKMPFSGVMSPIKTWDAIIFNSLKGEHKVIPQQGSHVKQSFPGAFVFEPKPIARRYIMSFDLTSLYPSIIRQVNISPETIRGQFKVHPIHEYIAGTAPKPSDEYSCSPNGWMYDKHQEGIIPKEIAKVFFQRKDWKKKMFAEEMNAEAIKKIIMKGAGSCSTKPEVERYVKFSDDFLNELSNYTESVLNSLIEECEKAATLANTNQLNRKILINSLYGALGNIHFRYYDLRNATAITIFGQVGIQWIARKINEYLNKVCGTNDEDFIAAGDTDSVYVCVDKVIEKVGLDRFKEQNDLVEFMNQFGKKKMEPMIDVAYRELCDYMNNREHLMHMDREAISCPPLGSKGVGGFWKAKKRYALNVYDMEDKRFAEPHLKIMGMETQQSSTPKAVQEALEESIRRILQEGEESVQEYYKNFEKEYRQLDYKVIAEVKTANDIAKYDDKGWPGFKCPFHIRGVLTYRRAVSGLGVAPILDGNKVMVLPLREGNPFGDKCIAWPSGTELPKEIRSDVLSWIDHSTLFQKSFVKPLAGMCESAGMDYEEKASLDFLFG
- EXPERIMENTAL_DETAILS: Counter-screen against bacteriophage T4 DNA polymerase
- Format: biochemical
- STUDY_CONDITIONS: DRC-2; 40'; concentration 20
% inhibition T4 40' overview
ASSAY_ENDPOINT: % inhibition T4 40' (%)

compound=CCOC(=O)C1=C2c3cc(OC)c(OC)cc3CC(C)(C)N2C(=O)C1=O assay_endpoint="% inhibition T4 40'" scale_unit=% numeric_value=29
compound="O=C(Cn1ccc2c(=O)[nH]ccc21)Nc1cc(F)ccc1F [Molecule 42, O=C(Cn1ccc2c1cc[nH]c2=O)Nc1cc(F)ccc1F]" assay_endpoint="% inhibition T4 40'" scale_unit=% numeric_value=-4
compound=CN(C)S(=O)(=O)Oc1ccc(-c2noc(-c3ccc(Oc4cc(Cl)cc(Cl)c4)o3)n2)cc1 assay_endpoint="% inhibition T4 40'" scale_unit=% numeric_value=38
compound=O=C1CCCC2=C1C(c1ccccn1)C1=C(CCCC1=O)O2 assay_endpoint="% inhibition T4 40'" scale_unit=% numeric_value=18
compound="CC(NC(=O)Cc1cc(=O)[nH]c(SCc2cccc(Cl)c2)n1)c1ccccc1 (centres unmarked)" assay_endpoint="% inhibition T4 40'" scale_unit=% numeric_value=19
compound=O=C(Nc1ccc2c(c1)Cc1cc(NC(=O)c3ccco3)ccc1-2)c1ccco1 assay_endpoint="% inhibition T4 40'" scale_unit=% numeric_value=25
compound="O=C(NC(C(Cl)Cl)S(=O)(=O)c1ccccc1)c1ccccc1 (centres unmarked)" assay_endpoint="% inhibition T4 40'" scale_unit=% numeric_value=-26
compound=COc1ccc(CNC(=O)Cn2nc3c(c2NC(=O)Cc2cccs2)CSC3)cc1 assay_endpoint="% inhibition T4 40'" scale_unit=% numeric_value=28
compound=CCCCC(=O)N1CCc2c(nc3cc(-c4ccccc4Cl)[nH]n3c2=O)C1 assay_endpoint="% inhibition T4 40'" scale_unit=% numeric_value=0.821
compound="O=C(c1c[nH]c2ncccc12)N1CCCC1 [Molecule 63, O=C(c1c[nH]c2c1cccn2)N1CCCC1]" assay_endpoint="% inhibition T4 40'" scale_unit=% numeric_value=25
compound=O=[N+]([O-])c1ccc(/C=C/c2ccc3ccccc3n2)o1 assay_endpoint="% inhibition T4 40'" scale_unit=% numeric_value=37
compound="O=C1N=C(Nc2cccc(Cl)c2Cl)S/C1=C\\c1ccco1 [Molecule 3, O=C1N=C(S/C/1=C\\c1ccco1)Nc1cccc(c1Cl)Cl]" assay_endpoint="% inhibition T4 40'" scale_unit=% numeric_value=30
compound=Cc1ccc(C)n1-c1ccc(C(=O)NNC(=O)c2ccc3nccnc3c2)cc1 assay_endpoint="% inhibition T4 40'" scale_unit=% numeric_value=31
compound=N#CC(=NNc1cc(C(F)(F)F)cc(C(F)(F)F)c1)C(=O)c1ccco1 assay_endpoint="% inhibition T4 40'" scale_unit=% numeric_value=13
compound=CC(=O)c1cc2c(N)c(/C(N)=N/C#N)sc2nc1C assay_endpoint="% inhibition T4 40'" scale_unit=% numeric_value=-17
compound=Cc1ccc2c(C(=O)NCCc3cccnc3)cc(NC(=O)C(C)C)cc2n1 assay_endpoint="% inhibition T4 40'" scale_unit=% numeric_value=35
compound=O=C(NNC(=O)c1ccc(Cl)cc1)C(=O)NNC(=O)c1ccc(Cl)cc1 assay_endpoint="% inhibition T4 40'" scale_unit=% numeric_value=-23
compound=COc1ccc(-c2n[nH]cc2Oc2ccc(Cl)cc2)c(O)c1 assay_endpoint="% inhibition T4 40'" scale_unit=% numeric_value=-25
compound=O=C(O)CCS(=O)(=O)c1ccc(-c2ccc(S(=O)(=O)CCC(=O)O)cc2)cc1 assay_endpoint="% inhibition T4 40'" scale_unit=% numeric_value=-22
compound=Cc1ccccc1C(=O)N1CCc2c(nc3cc(-c4ccccc4)[nH]n3c2=O)C1 assay_endpoint="% inhibition T4 40'" scale_unit=% numeric_value=-10
compound=COc1cccc(Oc2c(C(F)(F)F)oc3cc(OC(=O)N(C)C)ccc3c2=O)c1 assay_endpoint="% inhibition T4 40'" scale_unit=% numeric_value=10
compound=Cc1ccc(NC(=O)C2CCN(C(=O)c3cc4ccsc4[nH]3)CC2)c(Br)c1 assay_endpoint="% inhibition T4 40'" scale_unit=% numeric_value=5
compound=CC(C)(C)OC(=O)COc1ccc2cc(-c3ccccc3)c(=O)oc2c1 assay_endpoint="% inhibition T4 40'" scale_unit=% numeric_value=6

====

% inhibition Apo pol 5' overview
- TARGET_SYSTEM: UniProtKB Q8ILY1
- EXPERIMENTAL_DETAILS: Fluorescence-based high-throughput DNA polymerase assay (molecular beacon), primary screen and dose-response
- Assay type: biochemical
- STUDY_CONDITIONS: DRC-2; 5'; concentration 20
ASSAY_ENDPOINT: % inhibition Apo pol 5' (%)

molecule="COc1cccc(Oc2c(C(F)(F)F)oc3cc(OC(=O)N(C)C)ccc3c2=O)c1 [Molecule 52]" assay_endpoint="% inhibition Apo pol 5'" numeric_value=32
molecule="O=C(Nc1ccc2c(c1)Cc1cc(NC(=O)c3ccco3)ccc1-2)c1ccco1 [KU0038977]" assay_endpoint="% inhibition Apo pol 5'" numeric_value=42
molecule="O=C(Nc1c2c(nn1-c1ccc(Oc3ccccc3)cc1)CSC2)c1ccco1 [KU0055927]" assay_endpoint="% inhibition Apo pol 5'" numeric_value=51
molecule="Cc1cc(C)c2c(c1)C1C=CCC1C(c1ccc(C(=O)O)cc1)N2 (centres unmarked) [Molecule 102]" assay_endpoint="% inhibition Apo pol 5'" numeric_value=58
molecule="COc1cccc(C(=O)N2CCc3c(nc4cc(-c5ccccc5)[nH]n4c3=O)C2)c1OC [Molecule 22]" assay_endpoint="% inhibition Apo pol 5'" numeric_value=52
molecule="COc1cc(Cl)c(C)cc1NC(=O)Cn1ccc2c(=O)[nH]ccc21 [Molecule 33]" assay_endpoint="% inhibition Apo pol 5'" numeric_value=42
molecule="Cc1cc(C)cc(-n2nc3c(c2NC(=O)c2ccco2)CSC3)c1 [KU0055926]" assay_endpoint="% inhibition Apo pol 5'" numeric_value=50
molecule="O=C(Cn1ccc2c(=O)[nH]ccc21)Nc1ccc(Cl)cc1 [Molecule 36, O=C(Cn1ccc2c1cc[nH]c2=O)Nc1ccc(cc1)Cl]" assay_endpoint="% inhibition Apo pol 5'" numeric_value=44
molecule="O=C1c2ccccc2C(=O)N1Oc1ccc([N+](=O)[O-])c([N+](=O)[O-])c1 [Molecule 66]" assay_endpoint="% inhibition Apo pol 5'" numeric_value=27
molecule="CN(C)C1C(c2ccccc2)=C(c2ccccc2)SC(c2ccccc2)C1[N+](=O)[O-] (centres unmarked) [KU0268387]" assay_endpoint="% inhibition Apo pol 5'" numeric_value=40
molecule="O=C(NCC1CCN(C2CCCC2)CC1)C(=O)NC1CCCC1 [KU0199596]" assay_endpoint="% inhibition Apo pol 5'" numeric_value=35
molecule="Cc1cccc(CC(=O)N2CCc3c(nc4cc(-c5ccccc5)[nH]n4c3=O)C2)c1 [Molecule 12]" assay_endpoint="% inhibition Apo pol 5'" numeric_value=49
molecule="O=c1[nH]c2ccc([N+](=O)[O-])cc2c(-c2ccccc2)c1Sc1nc2ccccc2o1 [KU0067471]" assay_endpoint="% inhibition Apo pol 5'" numeric_value=42
molecule="COc1ccc(C2CC(c3ccc(Cl)cc3Cl)Nc3nc(N)nn32)cc1OC (centres unmarked) [Molecule 43]" assay_endpoint="% inhibition Apo pol 5'" numeric_value=30
molecule="O=C(Cc1cc(=O)[nH]c(SCc2ccccc2)n1)Nc1ccc2c(c1)OCO2 [Molecule 46]" assay_endpoint="% inhibition Apo pol 5'" numeric_value=29
molecule="O=C(c1c[nH]c2ncccc12)N1CCCC1 [Molecule 63, O=C(c1c[nH]c2c1cccn2)N1CCCC1]" assay_endpoint="% inhibition Apo pol 5'" numeric_value=40
molecule="O=C(CSc1nnc(-c2ccco2)[nH]1)c1ccc(Cl)cc1 [KU0029065]" assay_endpoint="% inhibition Apo pol 5'" numeric_value=26
